Data credit: the supplement of paper PMC10567573

B1: NCK2 (parent)
chain: YVERKNSLKKGSLVKNLKDTLGLG

# Variants of: B1
# Assay Explanation: protein stability index of a GFP-peptide fusion (GPS, HEK-293T) (PSI 1-6); higher = more stable;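 also: lentivirally expressed fusions sorted by FACS into six bins by GFP to DsRed ratio, PSI derived from sequencing read proportions per bin multiplied by bin number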
# Stated Conditions: c terminus: a fixed tail appended
Reported protein stability index is given for each of the following variants.
The response must contain the number and no unit.

Past entries and their recorded results:
biosequence="YVERKNSLKLGSLVKNLKDTLGLG [K10L]" test_result=2.17
biosequence="YVERKNSLKKGSLVKNLGDTLGLG [K18G]" test_result=1.84
biosequence="YVCRKNSLKKGSLVKNLKDTLGLG [E3C]" test_result=1.83
biosequence="YVERKNDLKKGSLVKNLKDTLGLG [S7D]" test_result=2.57
biosequence="YVERKNSLKKGSLVKNLKDKLGLG [T20K]" test_result=2.37
biosequence="YVERKNSLKTGSLVKNLKDTLGLG [K10T]" test_result=1.82
biosequence="YVERKNSLKKGSLVKNLKDTLGKG [L23K]" test_result=2.71
biosequence="YVERKNSLKKGSKVKNLKDTLGLG [L13K]" test_result=2.38

Item YVTRKNSLKKGSLVKNLKDTLGLG [E3T] has what recorded protein stability index?
1.78

Now try YVERKNSLKEGSLVKNLKDTLGLG [K10E] .
2.29

Now try YVERKNSLKKGSPVKNLKDTLGLG [L13P] .
3.05

Now try YVERKNSLKKGKLVKNLKDTLGLG [S12K] .
2.71

Now try YVERKNSLKKGSLVKNLKDTLMLG [G22M] .
2.23

Now try YVERKNSLKKGSLVTNLKDTLGLG [K15T] .
2.56

Now try YVERKNSLKKGSLVKNLKCTLGLG [D19C] .
2.11
